Measured values drawn from the supplement of paper PMC10567573 for this set.

assayOverview: protein stability index of a GFP-peptide fusion (GPS, HEK-293T) (PSI 1-6); higher = more stable;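 also: 24-mer peptide tiles fused after GFP, lentivirally expressed, FACS-sorted into six equal bins by GFP/DsRed ratio, decoded by Illumina sequencing, PSI is the read-weighted mean bin number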
experimentalConditions: treatment: DMSO; c terminus: a fixed tail appended
Classification field: yes (1) = protein stability index at or over 4; no (0) = protein stability index under 4.

| querySequence | classAssignment |
| --- | --- |
| AGDEAVFAQYDSFHVDSAAEYYRL [TNXB] | no (0) |
| GNNPNGREAKMICFKSVAKTPYDT [ELOA2] | no (0) |
| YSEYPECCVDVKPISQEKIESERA [DUSP5] | yes (1) |
| GIQQLLQAEKRAAEKVSEARKRKN [ATP6V1G1] | yes (1) |

Request: Dear colleague, could you confirm whether MDVMPGEGDLPQMEVGSGSRELSL [EID1] has protein stability index at or above 4?
Result: yes (1)

Request: Dear colleague, could you confirm whether QEDAPMIEPLVPEEKMETKTESSG [EPB41L3] has protein stability index at or above 4?
Result: yes (1)

---

assayOverview: protein stability index of a GFP-peptide fusion (GPS, HEK-293T) (PSI 1-6); higher = more stable
experimentalConditions: treatment: DMSO; c terminus: a fixed tail appended
Classification field: YES = protein stability index at or over 3; NO = protein stability index under 3.

Worked examples follow.
| querySequence | classAssignment |
| --- | --- |
| KSLSELVDDKFGTGTKKVTRILDG [PSD2] | YES |
| PPGDIMFLLVQRFGELMRKLWNPR [USP39] | NO |
| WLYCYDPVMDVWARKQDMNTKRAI [KLHL14] | NO |
| EQYERNKSSSSSSSSSSSSSSSSS [TMEM40] | YES |
| LDAEDRPAWNSKLQYILAQIGFSV [SLC6A17] | NO |

Request: Dear colleague, could you confirm whether EPVIKVAAIDNGLAFPLKHPDSWR [PI4K2A] has protein stability index at or above 3?
Result: YES

Request: Dear colleague, could you confirm whether HLVIAEMMELGSRSRGASQKKQKL [FATE1] has protein stability index at or above 3?
Result: YES

Request: Dear colleague, could you confirm whether GAPSPGSSDVSTAGTGASRSSHSS [ELF3] has protein stability index at or above 3?
Result: YES

Request: Dear colleague, could you confirm whether ARFITDFLDNGYGHCLLDKPEAPL [ADAMTS4] has protein stability index at or above 3?
Result: NO

Request: Dear colleague, could you confirm whether MADERKDEAKAPHWTSAPLTEASA [MAP2] has protein stability index at or above 3?
Result: YES

Request: Dear colleague, could you confirm whether NTLSVSYKKGRMMKDISNLEENDE [SLC6A17] has protein stability index at or above 3?
Result: YES

---

Catalogue of protein stability index readings, one per entry.
assayOverview: protein stability index of a GFP-peptide fusion (GPS, HEK-293T) (PSI 1-6); higher = more stable
experimentalConditions: treatment: DMSO; c terminus: a fixed tail appended
# respond with the number and nothing more

| querySequence | testReadout | numericValue |
| --- | --- | --- |
| KDVAIDMMDSRTSQQLQLIDEQDS [STX5] | protein stability index | 5.4 |
| SPSTLIGSLRTLELGSESQGASES [HDAC6] | protein stability index | 5.08 |
| HRAHHKFSETHADPHNSRRGFFFS [SCD] | protein stability index | 3.08 |
| SFAELFSFMLQDRAKGLLGTTVTF [FEM1C] | protein stability index | 2.79 |
| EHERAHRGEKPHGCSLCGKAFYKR [ZNF649] | protein stability index | 2.79 |
| KWTRVASMSTRRLGVAVAVLGGFL [KLHL20] | protein stability index | 2.18 |
| AWLNEHRKNPYPTKGEKIMLAIIT [IRX6] | protein stability index | 2.7 |
| PRLHIVKADENNGFGSKNTAFCTH [TBX5] | protein stability index | 3.43 |
| DTLISQESCEKNDPLSLLDDSKFP [PCDHGA10] | protein stability index | 5.05 |
| MSAPGSPDQAYDFLLKFLLVGDRD [RAB40A] | protein stability index | 2.27 |

Request: protein stability index lookup needed for NHGYAEPAAGRELPPDMTVVPGDH [KCNA3] , thanks.
Result: 5.21

Request: protein stability index lookup needed for AEETANLPPSPPPSPASEQTVTVE [MAP2] , thanks.
Result: 5.05

Request: protein stability index lookup needed for QPGPSGAPAQRATRGFLRSPSSDL [RETREG3] , thanks.
Result: 3.97
